# tested on: hMC4R (Homo sapiens (Human))
# Sequence (P32245 whole entry): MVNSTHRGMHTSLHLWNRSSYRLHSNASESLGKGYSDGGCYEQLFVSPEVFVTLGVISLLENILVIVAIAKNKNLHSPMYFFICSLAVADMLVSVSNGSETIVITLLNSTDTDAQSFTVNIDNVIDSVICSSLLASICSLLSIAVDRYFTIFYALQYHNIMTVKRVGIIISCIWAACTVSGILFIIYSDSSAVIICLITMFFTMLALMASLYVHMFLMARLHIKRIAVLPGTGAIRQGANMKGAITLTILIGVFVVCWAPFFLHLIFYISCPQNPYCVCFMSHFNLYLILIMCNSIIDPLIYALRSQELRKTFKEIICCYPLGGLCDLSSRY
# method: In vitro binding affinity assay using hMC4R (radioligand competition binding, [125I]-(Nle4, D-Phe7)-α-MSH)
# run parameters: geometric mean, read-out: Ki (nM) geometric mean
Please respond with reported Ki for every item in the list.
Give bare numbers, in nM.

Please review the following examples before continuing.
[
  {
    "compound": "Cc1nc2c(cc1-c1ncccn1)CC[C@@]1(CCN(C(=O)[C@H](C)c3cc(F)c(F)cc3F)C1)N2 (single isomer, unassigned) [Example 52]",
    "Ki [nM]": 0.68
  },
  {
    "compound": "COc1cc([C@@H](C)C(=O)N2CC[C@@]3(CCc4ccc(C)nc4N3)C2)c(F)cn1 (single isomer, unassigned)",
    "Ki [nM]": 81
  }
]

I have 3 compounds here; please give me Ki for each one.
1. COc1cc(OC)cc([C@@H](C)C(=O)N2CC[C@@]3(CCc4cc(-c5cnn(C)c5)c(C)nc4N3)C2)c1 (single isomer, unassigned)
2. COc1cc([C@@H](C)C(=O)N2CC[C@@]3(CCc4cc(-c5ncccn5)c(C)nc4N3)C2)c(C(F)F)cn1 (single isomer, unassigned) [Example 37]
3. Cc1ccc2c(n1)NC1(CCN(C(=O)Cc3ccc(F)cc3)C1)CC2C (single isomer, unassigned) [Example 10]

1. 17
2. 180
3. 440
